- test method notes: Anticonvulsant activity against audiogenic seizures in DBA/2 mice 30 min after intraperitoneal administration (tonic phase)
- Format: functional
- cond: Mus musculus, ip, 0.5 h
# log10 of ED50 annotations
outcome measure: log10 of ED50 (log10 of the value in µmol/kg)

>>> numeric_readout("COc1cc2c(cc1OC)C(c1ccc(F)cc1)N(C(C)=O)CC2 (configuration not stated)")
1.26
>>> numeric_readout("COc1cc2c(cc1OC)C(c1ccc(Br)cc1)N(C(C)=O)CC2 (configuration not stated)")
1.22
>>> numeric_readout("CC(=O)N1N=C(c2ccc(N)cc2)c2cc3c(cc2C[C@H]1C)OCO3")
0.99
>>> numeric_readout("COc1cc2c(cc1OC)C(c1ccc(Cl)cc1)N(C(C)=O)CC2 (configuration not stated)")
0.38
>>> numeric_readout("COc1cc2c(cc1OC)C(c1ccccc1)N(C(C)=O)CC2 (configuration not stated)")
1.58
>>> numeric_readout("COc1cc2c(cc1OC)C(c1ccc(N)cc1)N(C(C)=O)CC2 (configuration not stated)")
1.32
